system: MUC2 (Homo sapiens, UniProt Q02817)
Construct: native secreted polymeric gel-forming mucin, O-glycosylated, disulfide-linked; purified from human cell culture by two-step CsCl density gradient
procedure text: mucin fluorescence quenching, Lineweaver-Burk fit
Assay type: binding
parameter: Kd (µM)

O=c1[nH]cc(F)c(=O)[nH]1
136
CC(=O)O[C@H]1C(=O)[C@@]2(C)[C@H]([C@H](OC(=O)c3ccccc3)[C@]3(O)C[C@H](OC(=O)[C@H](O)[C@@H](NC(=O)c4ccccc4)c4ccccc4)C(C)=C1C3(C)C)[C@]1(OC(C)=O)CO[C@@H]1C[C@@H]2O
163

----------
system: MUC5B (Homo sapiens)
Construct: native secreted polymeric gel-forming mucin, O-glycosylated, disulfide-linked; purified from human cell culture by two-step CsCl density gradient
procedure text: mucin fluorescence quenching, Lineweaver-Burk fit
Type: binding
parameter: Kd (µM)
Provide the reading as a plain figure in µM.

Consider the compound Cn1c(=O)c2[nH]cnc2n(C)c1=O and give its measured Kd.
189

Consider the compound O=c1[nH]cc(F)c(=O)[nH]1 and give its measured Kd.
143
